For each entry below, report its IC50 value.
Target: E-selectin (Homo sapiens)
Sequence (P16581 whole entry): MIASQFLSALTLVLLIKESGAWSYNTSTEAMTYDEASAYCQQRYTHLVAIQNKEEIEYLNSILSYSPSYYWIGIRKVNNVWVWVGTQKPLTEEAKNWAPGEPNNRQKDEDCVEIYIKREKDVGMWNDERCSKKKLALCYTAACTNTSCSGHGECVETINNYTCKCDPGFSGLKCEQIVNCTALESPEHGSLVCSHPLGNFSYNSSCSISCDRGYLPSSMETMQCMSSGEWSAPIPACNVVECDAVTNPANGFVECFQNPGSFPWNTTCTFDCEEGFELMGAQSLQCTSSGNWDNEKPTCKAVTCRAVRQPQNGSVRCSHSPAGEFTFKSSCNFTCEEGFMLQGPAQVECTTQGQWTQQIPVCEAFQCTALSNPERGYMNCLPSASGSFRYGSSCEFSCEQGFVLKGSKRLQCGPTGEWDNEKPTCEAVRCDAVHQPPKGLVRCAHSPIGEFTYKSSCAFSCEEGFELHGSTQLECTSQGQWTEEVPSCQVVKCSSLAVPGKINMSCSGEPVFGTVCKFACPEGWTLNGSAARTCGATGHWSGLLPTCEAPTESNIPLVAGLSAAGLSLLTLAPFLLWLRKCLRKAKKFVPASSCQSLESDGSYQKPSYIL
Assay: Inhibition of MM6 cell adhesion to recombinant E-selectin by flow chamber assay
Write the figure, then the unit, nothing else.

{"entry smiles": "CCCCCCCCCCOc1cc(OCCCCCCCCCC)cc(OCCCCCCN(c2ccc(C(=O)O)cc2)c2ccc(C(=O)O)cc2)c1", "result": "28 µM"}

# context switch: different molecule, same IC50
Qu. # lookup: IC50 of CCCCCCCCCCOc1cc(OCCCCCCCCCC)cc(OCCCCCCON=C(c2ccc(C(=O)O)cc2)c2ccc(C(=O)O)cc2)c1
Ans. 20 µM

Taken from BindingDB's records for doi:10.1021/jm060468y.
